Measured values drawn from patent US20250206738A1 for this set.

- target.system: human Werner helicase (WRN, Uniprot Q14191, amino acids 517-1235 with L1074F point mutation; WRN-BV08) (Homo sapiens, UniProt Q14191, L1074F)
- Construct: Uniprot Q14191, amino acids 517-1235 with L1074F point mutation; 8xHis (C, cleaved yes); TEV cleavage site (ENLYFQG) (C, cleaved yes)
- Sequence (Q14191 with tags, fused parts or gaps L1074F): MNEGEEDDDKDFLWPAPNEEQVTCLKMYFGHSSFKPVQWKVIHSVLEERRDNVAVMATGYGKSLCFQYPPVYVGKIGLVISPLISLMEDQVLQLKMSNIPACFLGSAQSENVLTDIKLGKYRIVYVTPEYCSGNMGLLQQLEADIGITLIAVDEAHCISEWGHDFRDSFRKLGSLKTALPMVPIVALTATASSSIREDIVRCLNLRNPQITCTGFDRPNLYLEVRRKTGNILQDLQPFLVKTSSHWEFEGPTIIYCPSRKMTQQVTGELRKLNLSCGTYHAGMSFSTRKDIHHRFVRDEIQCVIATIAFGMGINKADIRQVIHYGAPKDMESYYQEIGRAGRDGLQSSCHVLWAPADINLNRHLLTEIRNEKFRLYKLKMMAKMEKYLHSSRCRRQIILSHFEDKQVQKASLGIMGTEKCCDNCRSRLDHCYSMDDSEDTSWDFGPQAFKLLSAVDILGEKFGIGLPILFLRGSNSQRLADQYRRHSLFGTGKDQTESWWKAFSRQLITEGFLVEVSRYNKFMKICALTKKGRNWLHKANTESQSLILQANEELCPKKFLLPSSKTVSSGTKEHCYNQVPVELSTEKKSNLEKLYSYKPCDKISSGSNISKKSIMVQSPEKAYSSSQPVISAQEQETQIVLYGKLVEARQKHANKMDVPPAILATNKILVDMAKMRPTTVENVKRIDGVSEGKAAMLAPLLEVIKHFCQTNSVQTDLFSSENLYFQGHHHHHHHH
- test.protocol: WRN (BV08) ADP-Glo assay
- settings: WRN-BV08 (aa 517-1235, L1074F); read-out: ADP-Glo_hWRN_IC50
pIC50: −log10 of the molar value.
I'd appreciate it if you could supply pIC50 values for the items below.

Report pIC50, nothing else, for this compound: CCc1c(N2CCN(C(=O)c3cnn(C)c3)CC2)c(=O)n2nc(-c3ccnc(OC)c3)nc2n1CC(=O)NC1CC2(C1)CC2F (stereo not drawn) 6.30 to 7.00

Report pIC50, nothing else, for this compound: CCc1c(N2CCN(C(=O)c3c(O)ccc4ncoc34)[C@H]3CC[C@@H]32)c(=O)c2nn(-c3ccnc(OC)c3)nc2n1CC(=O)NC12CC(C(C)C)(C1)C2 ≥ 8.30

Report pIC50, nothing else, for this compound: CCc1c(N2CCN(C(=O)c3ncnc(C)c3O)CC2)c(=O)n2nc(C3=CCN(C(=O)COC)CC3)nc2n1CC(=O)NC12CC(C3CC3)(C1)C2 7.30 to 8.30

Report pIC50, nothing else, for this compound: CCc1c(N2CCN(C(=O)c3cnn(C)c3)CC2)c(=O)n2nc(C3=CCOCC3)nc2n1CC(=O)NC1CC2(C1)CC2F (stereo not drawn) 6.30 to 7.00

Report pIC50, nothing else, for this compound: CCc1c(N2CCN(C(=O)c3ncnc(C)c3O)[C@H]3CC[C@@H]32)c(=O)c2nn(-c3ccnc(OC)c3)nc2n1CC(=O)NC12CC(C3CCCC3)(C1)C2 ≥ 8.30

Report pIC50, nothing else, for this compound: CCc1c(N2CCN(C(=O)c3ncnc(C)c3O)[C@H]3CC[C@@H]32)c(=O)c2nn(-c3ccnc(C(F)F)c3)nc2n1CC(=O)NC12CC(C3CC3)(C1)C2 7.30 to 8.30

====

- target.system: human Werner helicase (WRN, Uniprot Q14191, amino acids 517-1235 with L1074F point mutation; WRN-BV08) (Homo sapiens, UniProt Q14191, L1074F)
- Construct: Uniprot Q14191, amino acids 517-1235 with L1074F point mutation; 8xHis (C, cleaved yes); TEV cleavage site (ENLYFQG) (C, cleaved yes)
- test.protocol: WRN (BV08) ADP-Glo assay
- settings: WRN-BV08 (aa 517-1235, L1074F); read-out: ADP-Glo_hWRN_IC50
- From the text: Example 2: WRN (BV08) ADP-Glo Assay Protocol Bovine skin gelatin (BSG), dimethyl sulfoxide (DMSO), Pluronic F-127 and tris(2-carboxyethyl)phosphine hydrochloride solution (TCEP) were purchased from Sigma-Aldrich (St. Louis, MO) at the highest level of purity possible. […] The reaction was stopped by the addition of the ADP-Glo Kit components (Promega; Madison, WI) as directed and the relative luminescence units (RLU) were read on an Envision 2104 (Perkin Elmer; Waltham, MA). […]
pIC50: −log10 of the molar value.
endpoint.label: pIC50

Report pIC50, nothing else, for this molecule: CCc1c(N2CCN(C(=O)c3c(OC)ncc(C4CCOC4)c3O)CC2)c(=O)c2nn(-c3ccnc(OC)c3)nc2n1CC(=O)NC12CC(C(C)C)(C1)C2 (single isomer, unassigned) [I-64] 7.30 to 8.30

Report pIC50, nothing else, for this molecule: CCc1c(N2CCN(C(=O)c3cccc4ncoc34)[C@H]3CC[C@@H]32)c(=O)n2nc(C3=CCOCC3)nc2n1CC(=O)NC12CC(C(C)C)(C1)C2 7.30 to 8.30

Report pIC50, nothing else, for this molecule: CCc1c(N2CCN(C(=O)c3ncnc(C)c3O)[C@H]3CCC[C@H]32)c(=O)c2nn(-c3ccnc(OC)c3)nc2n1CC(=O)NC12CC(C(C)C)(C1)C2 (relative stereo) 7.30 to 8.30

====

I'd appreciate it if you could supply IC50 values for the items below.
- target.system: human Werner helicase (WRN, Uniprot Q14191, amino acids 517-1235 with L1074F point mutation; WRN-BV08) (Homo sapiens, UniProt Q14191, L1074F)
- Construct: Uniprot Q14191, amino acids 517-1235 with L1074F point mutation; 8xHis (C, cleaved yes); TEV cleavage site (ENLYFQG) (C, cleaved yes)
- test.protocol: WRN (BV08) ADP-Glo assay
- settings: WRN-BV08 (aa 517-1235, L1074F); read-out: ADP-Glo_hWRN_IC50
- Source text: Example 2: WRN (BV08) ADP-Glo Assay Protocol Bovine skin gelatin (BSG), dimethyl sulfoxide (DMSO), Pluronic F-127 and tris(2-carboxyethyl)phosphine hydrochloride solution (TCEP) were purchased from Sigma-Aldrich (St. Louis, MO) at the highest level of purity possible. […] The reaction was stopped by the addition of the ADP-Glo Kit components (Promega; Madison, WI) as directed and the relative luminescence units (RLU) were read on an Envision 2104 (Perkin Elmer; Waltham, MA). […]

Report IC50, nothing else, for this molecule: CCc1c(N2CCN(C(=O)c3c(O)ccc4ncoc34)CC2)c(=O)n2nc(-c3ccnc(OC)c3)nc2n1CC(=O)NC1CC2(CCC2)C1 [I-206] 5 to 50 nM

Report IC50, nothing else, for this molecule: CCc1c(N2CCN(C(=O)c3ncnc(C)c3O)CC2)c(=O)n2nc(N(C)C)nc2n1CC(=O)NC12CC(C(F)(F)F)(C1)C2 [I-33] 100 to 500 nM

Report IC50, nothing else, for this molecule: CCc1c(N2CCN(C(=O)c3ccccc3C(=O)O)[C@H]3CC[C@@H]32)c(=O)c2nn(-c3ccnc(OC)c3)nc2n1CC(=O)NC12CC(C(C)C)(C1)C2 [I-207] 5 to 50 nM

Report IC50, nothing else, for this molecule: CCc1c(N2CCN(C(=O)c3c(O)ccc4ncoc34)CC2)c(=O)n2nc(-c3ccnc(OC)c3)nc2n1CC(=O)NC12CC(C(F)(F)C(F)F)(C1)C2 [I-41] 5 to 50 nM

Report IC50, nothing else, for this molecule: CCc1c(N2CCN(C(=O)c3ncnc(C)c3O)[C@H]3CC[C@@H]32)c(=O)n2nc(-c3ccnc(OC)c3)nc2n1CC(=O)NC12CC(C3CC3)(C1)C2 [I-208] 5 to 50 nM

Report IC50, nothing else, for this molecule: CCc1c(N2CCN(C(=O)c3ncccc3C(=O)O)CC2)c(=O)c2nn(-c3ccnc(OC)c3)nc2n1CC(=O)NC12CC(C3CC3)(C1)C2 [I-216] 5 to 50 nM

Report IC50, nothing else, for this molecule: CCc1c(N2CCN(C(=O)c3c(O)ccc4ncoc34)CC2)c(=O)c2sc(-c3ccnc(OC)c3)nc2n1CC(=O)NC12CC(C(F)(F)F)(C1)C2 [I-37] 5 to 50 nM

Report IC50, nothing else, for this molecule: CCc1c(N2CCN(C(=O)c3ncc4c(c3O)CCO4)CC2)c(=O)n2nc(C3=CCOCC3)nc2n1CC(=O)NC12CC(C3CC3)(C1)C2 [I-9] 5 to 50 nM

Report IC50, nothing else, for this molecule: CCc1c(N2CCN(C(=O)c3c(OC)ncc(C)c3O)CC2)c(=O)c2nn(-c3ccnc(OC)c3)nc2n1CC(=O)NC12CC(N3CCCC3)(C1)C2 [I-126] > 500 nM

Report IC50, nothing else, for this molecule: CCc1c(N2CCN(C(=O)c3ncnc(C)c3O)[C@H]3CC[C@@H]32)c(=O)c2nc(N(C)C)cnc2n1CC(=O)NC1CC2(CCCC2)C1 [I-230] 5 to 50 nM

Report IC50, nothing else, for this molecule: CCc1c(N2CCN(C(=O)c3ncc4c(c3O)CCO4)CC2)c(=O)n2nc(C3=CCOCC3)nc2n1CC(=O)NC12CC(C(C)C)(C1)C2 [I-15] 5 to 50 nM

Report IC50, nothing else, for this molecule: CCc1c(N2CCN(C(=O)c3ncnc(C)c3O)[C@H]3CC[C@@H]32)c(=O)c2nn(C3=CCOC(C)C3)nc2n1CC(=O)NC12CC(C3CC3)(C1)C2 (stereo partly shown) [I-162] 5 to 50 nM

Report IC50, nothing else, for this molecule: CCc1c(N2CCN(C(=O)c3ncc4c(c3O)CCO4)CC2)c(=O)n2nc(C3=CCOCC3)nc2n1CC(=O)NC12CC(C(C)(F)F)(C1)C2 [I-7] 5 to 50 nM

====

- target.system: human Werner helicase (WRN, Uniprot Q14191, amino acids 517-1235 with L1074F point mutation; WRN-BV08) (Homo sapiens, UniProt Q14191, L1074F)
- Construct: Uniprot Q14191, amino acids 517-1235 with L1074F point mutation; 8xHis (C, cleaved yes); TEV cleavage site (ENLYFQG) (C, cleaved yes)
- test.protocol: WRN (BV08) ADP-Glo assay
- settings: WRN-BV08 (aa 517-1235, L1074F); read-out: ADP-Glo_hWRN_IC50
pIC50: −log10 of the molar value.
I'd appreciate it if you could supply pIC50 values for the items below.

Report pIC50, nothing else, for this compound: CCc1c(N2CCN(C(=O)c3c(O)ccc4ncoc34)CC2)c(=O)n2nc(-c3ccnc(OC)c3)nc2n1CC(=O)NC12CC(C3COC3)(C1)C2 6.30 to 7.00

Report pIC50, nothing else, for this compound: CCc1c(C2=CCN(C(=O)c3ncnc(C)c3O)CC2C)c(=O)c2nn(-c3ccnc(OC)c3)nc2n1CC(=O)NC12CC(C(C)C)(C1)C2 (single isomer, unassigned) [I-97] 7.30 to 8.30

Report pIC50, nothing else, for this compound: CCc1c(N2CCN(C(=O)c3cnn(C)c3)CC2)c(=O)n2nc(-c3ccnc(OC)c3)nc2n1CC(=O)N[C@@H]1C[C@H]1c1c(F)cccc1F (racemic) 6.30 to 7.00

Report pIC50, nothing else, for this compound: CCc1c(N2CCN(C(=O)c3c(O)ccc4ncoc34)CC2)c(=O)n2nc(C3=CCOCC3)nc2n1CC(=O)NC12CC(C3CC3)(C1)C2 7.30 to 8.30

Report pIC50, nothing else, for this compound: CCc1c(N2CCN(C(=O)c3ncnc(C)c3O)[C@H]3CC[C@@H]32)c(=O)c2nn(-c3ccn(C4CC4)n3)nc2n1CC(=O)NC12CC(C(C)C)(C1)C2 7.30 to 8.30

Report pIC50, nothing else, for this compound: CCc1c(N2CCN(C(=O)c3ncnc(C)c3O)[C@H]3CC[C@@H]32)c(=O)c2nn(C3=CCOC(C)C3)nc2n1CC(=O)NC12CC(C3CC3)(C1)C2 (single isomer, unassigned) [I-170] 7.30 to 8.30
